target of assay: DAPK2 (human) (UniProt Q9UIK4)
Sequence (Q9UIK4 whole entry, looked up): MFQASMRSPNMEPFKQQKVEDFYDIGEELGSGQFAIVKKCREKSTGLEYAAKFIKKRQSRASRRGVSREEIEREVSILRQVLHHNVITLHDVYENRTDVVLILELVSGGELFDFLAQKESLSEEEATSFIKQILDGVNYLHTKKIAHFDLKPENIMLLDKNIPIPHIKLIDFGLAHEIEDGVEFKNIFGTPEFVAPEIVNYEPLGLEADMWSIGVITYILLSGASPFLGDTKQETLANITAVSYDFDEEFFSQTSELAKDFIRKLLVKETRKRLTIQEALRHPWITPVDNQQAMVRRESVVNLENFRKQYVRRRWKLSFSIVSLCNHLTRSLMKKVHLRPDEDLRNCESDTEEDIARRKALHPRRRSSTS
assay details: radiometric filter-binding kinase assay, Kinase HotSpot
cond: compound 0.5 µM; ATP 10 µM

>  <chemical structure>
COc1ccc(OC)c2c(=S)c3ccccc3[nH]c12

>  <residual activity [%]>
94

$$$$
>  <chemical structure>
Cn1sc(=O)n(Cc2ccccc2)c1=O

>  <residual activity [%]>
94

$$$$
>  <chemical structure>
Oc1ccc(Nc2nc(-c3ccc(Cl)cc3)cs2)cc1

>  <residual activity [%]>
107

$$$$
>  <chemical structure>
O=C1NC(=O)/C(=C\c2ccc3nccnc3c2)S1

>  <residual activity [%]>
139

$$$$
>  <chemical structure>
Cc1nc2cc3nc(-c4cccs4)cnc3cc2n1C

>  <residual activity [%]>
94.1

$$$$
>  <chemical structure>
CCN(CC)CCCCN1c2ccccc2Oc2ccc(Cl)cc21

>  <residual activity [%]>
99

$$$$

---

target of assay: UniProt:Q92630
Sequence (Q92630 whole entry, looked up): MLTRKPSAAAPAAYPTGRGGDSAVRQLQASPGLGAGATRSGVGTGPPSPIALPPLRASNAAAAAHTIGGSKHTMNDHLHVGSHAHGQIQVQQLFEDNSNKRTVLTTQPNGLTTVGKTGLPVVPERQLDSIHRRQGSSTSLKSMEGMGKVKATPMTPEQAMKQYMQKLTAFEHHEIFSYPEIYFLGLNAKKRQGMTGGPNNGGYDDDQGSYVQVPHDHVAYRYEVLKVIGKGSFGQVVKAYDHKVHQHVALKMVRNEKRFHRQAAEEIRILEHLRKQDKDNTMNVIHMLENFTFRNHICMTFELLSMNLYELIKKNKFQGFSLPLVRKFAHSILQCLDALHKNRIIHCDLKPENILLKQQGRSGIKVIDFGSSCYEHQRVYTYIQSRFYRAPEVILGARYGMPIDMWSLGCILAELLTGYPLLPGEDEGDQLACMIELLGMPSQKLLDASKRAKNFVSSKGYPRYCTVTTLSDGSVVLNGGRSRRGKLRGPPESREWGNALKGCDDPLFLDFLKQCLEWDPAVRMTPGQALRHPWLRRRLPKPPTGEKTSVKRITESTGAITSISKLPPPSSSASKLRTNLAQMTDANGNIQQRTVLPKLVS
assay details: radiometric filter-binding kinase assay, Kinase HotSpot
cond: compound 0.5 µM; ATP 10 µM
Listed compounds paired with reported residual activity
measured endpoint: residual activity (%)

>  <compound>
O=C1Nc2ccccc2/C1=C1\Nc2ccccc2\C1=N/O

>  <result value>
79.1

$$$$
>  <compound>
Cc1nc2cc3nc(-c4cccs4)cnc3cc2n1C

>  <result value>
104

$$$$
>  <compound>
COc1cc2ncc(-c3ccccc3)nc2cc1OC

>  <result value>
95.9

$$$$
>  <compound>
CC(C)c1nn(-c2c(Cl)cccc2Cl)c2nc(Cc3ccc(OCCO)cc3)nc(O)c12

>  <result value>
100

$$$$
>  <compound>
CN(C)C[C@H]1CCn2c(c(C3=C(c4cn(C)c5ccccc45)C(=O)NC3=O)c3ccccc32)C1

>  <result value>
102

$$$$
>  <compound>
CN([C@@H](Cc1ccc(OS(=O)(=O)c2cccc3cnccc23)cc1)C(=O)N1CCN(c2ccccc2)CC1)S(=O)(=O)c1cccc2cnccc12

>  <result value>
97.7

$$$$
>  <compound>
O=C(Nc1cccc(Nc2cc(Nc3cccc(C(F)(F)F)c3)ncn2)c1)C1CC1

>  <result value>
99.9

$$$$
>  <compound>
O=C1NC(=O)C(c2cn(CCCO)c3ncccc23)=C1c1cnccn1

>  <result value>
81.7

$$$$
>  <compound>
Cn1sc(=O)n(Cc2ccccc2)c1=O

>  <result value>
104

$$$$
>  <compound>
O=C1NC(=O)C(c2c[nH]c3ccccc23)=C1c1c[nH]c2ccccc12

>  <result value>
97.7

$$$$
>  <compound>
Oc1ccc(Nc2nc(-c3ccc(Cl)cc3)cs2)cc1

>  <result value>
91.2

$$$$
>  <compound>
O=C1Nc2ccccc2/C1=C1/Nc2ccccc2/C1=N\OCCC(O)CO (stereo unspecified)

>  <result value>
61.4

$$$$
>  <compound>
O=C1NC(=O)/C(=C\c2ccc3nccnc3c2)S1

>  <result value>
39.8

$$$$
>  <compound>
O=C1Cc2c([nH]c3ccc(Br)cc23)-c2ccccc2N1

>  <result value>
107

$$$$
>  <compound>
Nc1nccc(-c2c(-c3ccc(F)cc3)ncn2C2CCNCC2)n1

>  <result value>
95.9

$$$$
>  <compound>
COc1ccc(CNC(=O)Nc2ncc([N+](=O)[O-])s2)cc1

>  <result value>
103

$$$$
>  <compound>
CCn1cnc2c(Nc3cccc(Cl)c3)nc(N[C@@H]3CCCC[C@@H]3N)nc21

>  <result value>
107

$$$$
>  <compound>
O=C(O)/C=C/c1cc(Br)c(Br)c(Br)c1Br

>  <result value>
79.4

$$$$
>  <compound>
COc1cc2ncnc(N3CCN(C(=O)Nc4ccc(Oc5ccccc5)cc4)CC3)c2cc1OC

>  <result value>
95.4

$$$$
>  <compound>
CCN(CC)CCCCN1c2ccccc2Oc2ccc(Cl)cc21

>  <result value>
101

$$$$
>  <compound>
Cn1nc2c3c(cccc31)C(=O)c1ccccc1-2

>  <result value>
99.4

$$$$
